Just for reference, ChEMBL document CHEMBL1129253 is where these values come from.

- System: Rattus norvegicus
- assay_protocol: Tested for sephadex-induced lung Eosinophilia inhibition at 30 mg/kg in rat
- Type: functional
test_readout: inhibition in vivo at 30 mg/kg (%)
Report the value in % with no unit label.

// lookup inhibition in vivo at 30 mg/kg for Nc1ncnn1/C(S)=N/Cc1ccccc1
40

// lookup inhibition in vivo at 30 mg/kg for CSC(=S)n1ncnc1N
36

// lookup inhibition in vivo at 30 mg/kg for C/N=C(\S)c1ccccc1N
47

// lookup inhibition in vivo at 30 mg/kg for C/N=C(\S)n1nc(-c2ccc(C)cc2)nc1N
65

// lookup inhibition in vivo at 30 mg/kg for CNC(=S)n1nc(-c2ccc(OC)cc2)nc1N
70

// lookup inhibition in vivo at 30 mg/kg for C/N=C(\S)n1nc(C)nc1N
13

// lookup inhibition in vivo at 30 mg/kg for C/N=C(\S)c1[nH]cnc1N
5

// lookup inhibition in vivo at 30 mg/kg for Nc1ncnn1/C(S)=N/c1ccccc1
-7

// lookup inhibition in vivo at 30 mg/kg for CNC(=S)n1ncnc1NC
-1

// lookup inhibition in vivo at 30 mg/kg for CNC(=O)n1ncnc1N
40

// lookup inhibition in vivo at 30 mg/kg for C/N=C(\S)c1nccnc1N
27

// lookup inhibition in vivo at 30 mg/kg for C/N=C(\S)n1nnnc1N
53

// lookup inhibition in vivo at 30 mg/kg for C/N=C(\S)c1sccc1N
4

// lookup inhibition in vivo at 30 mg/kg for CN(C)C(=S)n1ncnc1N
34

// lookup inhibition in vivo at 30 mg/kg for CS(=O)(=O)n1ncnc1N
-40

// lookup inhibition in vivo at 30 mg/kg for CCOCCC/N=C(\S)n1ncnc1N
1

###

Give measured inhibition in vivo at 30 mg/kg for each item. Keep answers brief.
- Test system: Rattus norvegicus
- assay_protocol: Tested for sephadex-induced lung Eosinophilia inhibition at 30 mg/kg in rat
- Assay type: functional
Report the value in % with no unit label.

// lookup inhibition in vivo at 30 mg/kg for C/N=C(\S)Nc1ccc(-c2nc(N)n(/C(S)=N/C)n2)cc1
31

// lookup inhibition in vivo at 30 mg/kg for CCOC(=O)C(=O)Nc1ccc(-c2nc(N)n(/C(S)=N/C)n2)cc1
49

// lookup inhibition in vivo at 30 mg/kg for CNC(=S)n1nc(SC)nc1N
54

// lookup inhibition in vivo at 30 mg/kg for C/N=C(\S)c1cccnc1N
27

// lookup inhibition in vivo at 30 mg/kg for CCC/N=C(\S)n1ncnc1N
93

// lookup inhibition in vivo at 30 mg/kg for S=C(NC1CCCCC1)n1cncn1
0

// lookup inhibition in vivo at 30 mg/kg for Nc1ncnn1/C(S)=N/CCCCCO
-17

// lookup inhibition in vivo at 30 mg/kg for C/N=C(\S)n1nc(-c2ccc(Cl)cc2)nc1N
88

// lookup inhibition in vivo at 30 mg/kg for C/N=C(\S)n1ncnc1N
93

// lookup inhibition in vivo at 30 mg/kg for C/N=C(\S)c1c[nH]nc1N
-22

// lookup inhibition in vivo at 30 mg/kg for C/N=C(\S)n1nc(-c2ccc(C#N)cc2)nc1N
87

// lookup inhibition in vivo at 30 mg/kg for C/N=C(\S)n1nc(-c2ccccc2)nc1N
54

// lookup inhibition in vivo at 30 mg/kg for C/N=C(\S)n1nccc1N
27

// lookup inhibition in vivo at 30 mg/kg for CCCC/N=C(\S)n1ncnc1N
21

// lookup inhibition in vivo at 30 mg/kg for C/N=C(\S)n1cnc(N)n1
25
